Entry source: patent US20250026813A1

- TARGET_DESC: SARS-CoV-2 spike receptor binding domain (RBD), antigen of Example 10 (SARS-CoV-2, UniProt P0DTC2 319-541)

- BINDER: "IMPI-056 (antibody, V domains shown) VH: EVQLVESGGGLIQPGGSLRLSCAASGLTVSSNYMNWVRQAPGKKLEWVSVIYSGGSTFYADSVRGRFTISRDNSKNTLFLQMNSLRAEDSAVYYCARDLGPYGVDVWGQGTTVTVSS VL: DIQLTQSPSFLSASVGDRVTITCWASQGISSYLAWYQQKPGKAPKLLIYAASTLQSGVPSRFSGSGSGTEFTLTISSLQPEDFATYYCQQLNSYPLTFGQGTRLEIK"
  Kd: "1.59 nM"
- BINDER: "IMPI-059 (antibody, V domains shown) VH: EVQLVESGGGLIQPGGSLRLSCAASGFTVSSIYMSWVRQAPGKGLEWVSIIYSRGSTDYADSVKGRFTISRDISKNTLYLQMNSLRAEDTAVYYCARDGTMVRGVHAFDIWGQGTMVTVSS VL: DIQMTQSPPSLSASIGDRVTITCQASQDISNYLNWYQQKPGKAPKLLIYDASNLETGVPSRFSGSGSGTDFTLTISNLQPEDIVTYYCQQYDNLPSSFGQGTKLEIK"
  Kd: "2.3 nM"
- BINDER: "IMPI-055 (antibody, V domains shown) VH: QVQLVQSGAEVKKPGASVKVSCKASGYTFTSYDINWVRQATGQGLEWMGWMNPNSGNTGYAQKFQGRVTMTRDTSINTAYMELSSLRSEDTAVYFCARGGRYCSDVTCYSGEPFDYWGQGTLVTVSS VL: EIMLTQSPDFQSVTPKEKVTITCRASQSIGSSLHWYQQKPDQSPKLLIKFASQSISGVPSRFSGSGSGTDFTLTINSLEAEDAAAYYCHQSSSLPHTFGPGTKVEIK"
  Kd: "1.85 nM"
